Data provenance: ChEMBL document CHEMBL5608113

Could you please report measured viability at 10 µM for the items listed next?
Test system: Colon cancer organoid
Experiment: Targeting of F14 CAF-induced therapy resistance in O23 CRC organoid-stroma co-culture. Cell viability is reported with SN-38.
Type: functional, Homo sapiens
Conditions: Homo sapiens, Concentration 10 uM; read-out: Cell Viability
Hi! Could you send only the number? It should be in %, unit omitted.

Record Cc1sc2c(c1C)C(c1ccc(Cl)cc1)=N[C@H](CC(=O)OC(C)(C)C)c1nnc(C)n1-2 : what is its viability at 10 µM with Colon cancer organoid? 73.3

Now consider CCn1cc(-c2cccc(C(F)(F)F)c2)c2sc(C(=N)NC3CCS(=O)(=O)CC3)cc2c1=O . 84.2

Now consider C[C@H](c1ccc(F)cc1)N(Cc1ccc(Cl)c(C(=O)O)c1)C(=O)c1cnc2ccccc2c1 . 93.8

Now consider Cc1cnc(-c2cc(Cl)ccc2F)cc1-n1c(=O)n(CC(N)=O)c2cnccc21 . 94

Now consider Cc1c(N2CCNCC2)nc2ccc(Br)cc2c1C(=O)NC[C@H](CCC(=O)O)c1ccccc1Cl . 87.2

Now consider CCC(F)(F)c1cc(N2CCC(S(C)(=O)=O)CC2)nc2sc(C(N)=O)c(N)c12 . 62.6

Now consider CN(C)[C@@H]1CCN(c2cc(-c3ccccc3)nc3ccnn23)C1 [(R)-ZINC-3573] . 70.6

Now consider C[C@H](c1ccnc(Nc2nc3ccc(-c4cc(N(C)C)ncn4)cc3[nH]2)c1)N1CCN(C(=O)CC(F)(F)F)CC1 . 80.5

Now consider CNCCN1CCC(c2cc(CN(C)C(=O)c3cccc(Oc4ccccc4)c3)ccn2)CC1 . 84.5
